Where do these numbers come from? They come from paper PMC3929235.

Assay: Pharmacokinetics in mice
Type: in vivo
Details: mouse, in vivo, intravenous, 1 mg/kg
ASSAY_ENDPOINT: clearance (mL/min/kg)
# value in mL/min/kg; strip the unit string

So, N#Cc1cccc(-n2nnc(-c3cccnc3)n2)c1 ? Its clearance was 46
